# system_under_test: GpIIb/IIIa receptor (Homo sapiens, UniProt P05106+P08514)
# Sequence (P08514 32-887 limits assumed): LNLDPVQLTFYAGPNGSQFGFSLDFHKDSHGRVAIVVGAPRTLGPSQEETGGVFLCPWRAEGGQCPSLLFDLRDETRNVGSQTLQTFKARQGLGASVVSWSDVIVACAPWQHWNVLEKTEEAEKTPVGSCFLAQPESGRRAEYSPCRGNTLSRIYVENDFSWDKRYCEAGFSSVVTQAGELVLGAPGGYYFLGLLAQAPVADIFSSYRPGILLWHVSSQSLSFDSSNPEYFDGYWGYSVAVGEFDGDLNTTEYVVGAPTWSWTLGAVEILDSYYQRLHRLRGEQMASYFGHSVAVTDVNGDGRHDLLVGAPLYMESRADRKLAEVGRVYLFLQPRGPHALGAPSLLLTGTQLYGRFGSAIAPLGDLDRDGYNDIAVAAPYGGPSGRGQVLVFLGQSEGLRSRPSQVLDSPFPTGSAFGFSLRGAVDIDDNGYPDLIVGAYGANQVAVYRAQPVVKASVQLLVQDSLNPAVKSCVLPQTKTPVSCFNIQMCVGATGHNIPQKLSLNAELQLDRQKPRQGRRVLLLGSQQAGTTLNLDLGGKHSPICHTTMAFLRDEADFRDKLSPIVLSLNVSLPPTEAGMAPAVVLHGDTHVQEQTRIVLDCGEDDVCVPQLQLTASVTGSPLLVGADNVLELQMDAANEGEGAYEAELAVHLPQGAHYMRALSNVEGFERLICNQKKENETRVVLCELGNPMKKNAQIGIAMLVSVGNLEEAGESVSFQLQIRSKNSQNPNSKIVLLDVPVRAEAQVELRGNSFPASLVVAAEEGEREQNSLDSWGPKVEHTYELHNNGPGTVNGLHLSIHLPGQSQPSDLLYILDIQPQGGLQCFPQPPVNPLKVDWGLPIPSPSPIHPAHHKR
# Sequence (P08514 891-1039 limits assumed): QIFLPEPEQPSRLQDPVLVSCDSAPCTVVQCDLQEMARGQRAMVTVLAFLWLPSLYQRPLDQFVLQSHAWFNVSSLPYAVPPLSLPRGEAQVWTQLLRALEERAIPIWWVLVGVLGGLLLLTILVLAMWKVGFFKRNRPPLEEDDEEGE
# Sequence (P05106 27-788): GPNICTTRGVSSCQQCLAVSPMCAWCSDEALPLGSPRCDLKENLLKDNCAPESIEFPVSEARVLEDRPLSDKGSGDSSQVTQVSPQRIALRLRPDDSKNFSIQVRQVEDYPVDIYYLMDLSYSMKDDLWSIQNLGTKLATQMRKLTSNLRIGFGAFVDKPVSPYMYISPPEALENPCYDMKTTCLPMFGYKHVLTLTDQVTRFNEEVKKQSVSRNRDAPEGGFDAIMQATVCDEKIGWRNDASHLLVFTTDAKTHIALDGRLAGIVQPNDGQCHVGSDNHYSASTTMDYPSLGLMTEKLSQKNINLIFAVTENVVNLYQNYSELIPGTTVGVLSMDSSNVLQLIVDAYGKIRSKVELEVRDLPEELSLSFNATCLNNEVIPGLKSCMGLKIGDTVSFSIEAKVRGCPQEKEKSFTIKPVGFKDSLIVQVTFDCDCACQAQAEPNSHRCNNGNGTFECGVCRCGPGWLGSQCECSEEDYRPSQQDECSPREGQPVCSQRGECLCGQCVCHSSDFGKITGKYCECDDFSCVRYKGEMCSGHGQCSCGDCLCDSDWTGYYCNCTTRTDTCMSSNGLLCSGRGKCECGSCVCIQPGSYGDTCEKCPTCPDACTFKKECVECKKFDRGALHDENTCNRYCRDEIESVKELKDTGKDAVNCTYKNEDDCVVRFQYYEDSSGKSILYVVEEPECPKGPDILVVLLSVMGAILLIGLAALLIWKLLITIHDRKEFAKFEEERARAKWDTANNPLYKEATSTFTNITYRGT
# measurement_description: GpIIb/IIIa-Fibrinogen-Elisa (inhibition of fibrinogen-GpIIb/IIIa interaction)
# Format: binding
# condition_parameters: isolated activated GpIIb/IIIa receptor on microtitre plates, 1 hour incubation, optical density at 405 nm, read-out: IC50
pIC50: −log10 of the molar value.
quantity_kind: pIC50

O=C(O)CC1(O)CCC(N2CCC(Nc3ccncc3)CC2)CC1 (centres unmarked) [Example 5] : 6.85
O=C(O)CC1(O)CCC(N2CCC(CCCNc3ccncc3)CC2)CC1 (centres unmarked) [12 (page 35)] : 6.70
